target: purified CaMKIIα (Homo sapiens); assay: In vitro kinase reactions with purified CaMKIIα (GluA1 S831, T286, GluN2B S1303 phosphorylation); type: biochemical; design: made in house; host or cells: baculovirus/Sf9 (CaMKIIα); BL21 bacteria (CaM); conditions: 1 mM ATP, 30° C., AS283 0.41-10 μM; Cheng-Prusoff with Km ATP 33.3 μM; read-out: apparent Ki, phosphorylation of GluA1 S831 (pS831)
parameter: pKi
By convention, pKi is the negative base-10 log of a molar concentration.

### Prompt Endpoint output: pKi of NCCNc1cccc(-c2ccnc3[nH]c4ccccc4c23)c1 [AS283] . Value?
### Response 7.77

The measurements presented in this section are drawn from patent US20260263429A1.
